Test system: CEM cells
Assay: Cytostatic/cytotoxic activity, inhibition of CEM cell proliferation
Settings: Table 1; 50% cytostatic concentration, CEM cell proliferation
So basically, if CC50 comes in under 20 µg/mL it's t, and if it's 20 µg/mL or more it's f.

[[record]]
compound = "CCc1c(CNc2cccc(C(C)=NO)c2)c(CC)c(CNc2cccc(C(C)=NO)c2)c(CC)c1CNc1cccc(C(C)=NO)c1 [Compound 28]"
test_system = "CEM cells"
category = "t"

[[record]]
compound = "Cc1cccc(NC(=O)c2cc(C(=O)Nc3cccc(C)n3)cc(C(=O)Nc3cccc(C)n3)c2)n1 [Compound 30]"
test_system = "CEM cells"
category = "f"

[[record]]
compound = "CCc1c(CNc2ccc3ccc(C)nc3n2)c(CC)c(CNc2ccc3ccc(C)nc3n2)c(CC)c1CNc1ccc2ccc(C)nc2n1 [Compound 25]"
test_system = "CEM cells"
category = "f"

[[record]]
compound = "Cc1ccc(NCc2c(C)c(CNc3ccc(C)cn3)c(C)c(CNc3ccc(C)cn3)c2C)nc1 [Compound 26]"
test_system = "CEM cells"
category = "f"


Quick check: CC50 of CCc1c(CN)c(CC)c(CNc2cc(C)cc(C)n2)c(CC)c1CNc1cc(C)cc(C)n1 [Compound 29] under 20 µg/mL?
t

###

Tested on: Influenza B
Assay: Anti-influenza activity in MDCK cells, Influenza B
Type: cell-based
Conditions: visual CPE, reference compounds, read-out: EC50 Influenza B visual CPE score
Measurement Kind: EC50

// known answers, use as guide
[[record]]
compound = "NC12CC3CC(CC(C3)C1)C2 [Amantadin, reference compound]"
measurement_kind = "EC50"
endpoint_result = "> 100 µM"

[[record]]
compound = "CCC(CC)O[C@@H]1C=C(C(=O)O)C[C@H](N)[C@H]1NC(C)=O [Oseltamivir caboxylate, reference compound]"
measurement_kind = "EC50"
endpoint_result = "4 µM"


Here is another compound to look at.
# lookup: EC50 of CC(N)C12CC3CC(CC(C3)C1)C2 (stereo not drawn) [Rimantadin, reference compound]
> 100 µM

###

System: Vesicular stomatitis virus
Test: microbe, parasite or virus in culture
Assay type: cell-based
Conditions: read-out: EC50 Vesicular stomatitis virus
pEC50: −log10 of the molar value.
Please provide measured pEC50 for the entries that follow.

// known answers, use as guide
[[record]]
compound_structure_string = "Nc1nc2c(ncn2COCCO)c(=O)[nH]1"
measurement_kind = "pEC50"
endpoint_result = "< 3.60"

[[record]]
compound_structure_string = "NC(=O)c1ncn([C@@H]2O[C@H](CO)[C@@H](O)[C@H]2O)n1"
measurement_kind = "pEC50"
endpoint_result = "< 3.60"

[[record]]
compound_structure_string = "O=c1[nH]c(=O)n([C@H]2C[C@H](O)[C@@H](CO)O2)cc1/C=C/Br"
measurement_kind = "pEC50"
endpoint_result = "< 3.60"


Here is another compound to look at.
# lookup: pEC50 of `Nc1nc(O)c2ncn(COC(CO)CO)c2n1`
< 3.82

###

Test system: Influenza A H1N1 subtype
Assay: Anti-influenza activity in MDCK cells, Influenza A H1N1
Assay type: cell-based
Settings: cell viability, formazan-based MTS assay
Measurement Kind: EC50 Influenza A H1N1 subtype MTS

// known answers, use as guide
[[record]]
compound_structure_string = "Cc1cc(C)c2ccc(NC(=O)c3cc(C(=O)Nc4ccc5c(C)cc(C)nc5n4)cc(C(=O)Nc4ccc5c(C)cc(C)nc5n4)c3)nc2n1"
test_system = "Influenza A H1N1 subtype"
measurement_kind = "EC50 Influenza A H1N1 subtype MTS"
endpoint_result = ">4 µg/mL"

[[record]]
compound_structure_string = "CCc1c(CNc2cccc(C)n2)c(CC)c(CNc2cccc(NC(=O)Cc3ccccc3)n2)c(CC)c1CNc1cccc(C)n1"
test_system = "Influenza A H1N1 subtype"
measurement_kind = "EC50 Influenza A H1N1 subtype MTS"
endpoint_result = ">4 µg/mL"

[[record]]
compound_structure_string = "CCc1c(CNc2ccc3ccc(C)nc3n2)c(CC)c(CNc2ccc3ccc(C)nc3n2)c(CC)c1CNc1ccc2ccc(C)nc2n1"
test_system = "Influenza A H1N1 subtype"
measurement_kind = "EC50 Influenza A H1N1 subtype MTS"
endpoint_result = ">4 µg/mL"

[[record]]
compound_structure_string = "Cc1ccc2ccc(NC(=O)c3cccc(C(=O)Nc4ccc5ccc(C)nc5n4)c3)nc2n1"
test_system = "Influenza A H1N1 subtype"
measurement_kind = "EC50 Influenza A H1N1 subtype MTS"
endpoint_result = "9.6 µg/mL"

[[record]]
compound_structure_string = "CCc1c(CN)c(CC)c(CNc2cc(C)cc(C)n2)c(CC)c1CNc1cc(C)cc(C)n1"
test_system = "Influenza A H1N1 subtype"
measurement_kind = "EC50 Influenza A H1N1 subtype MTS"
endpoint_result = ">0.8 µg/mL"


Look at each compound and report its EC50 Influenza A H1N1 subtype MTS.
1. CCc1c(CNc2cccc(C(C)=NO)c2)c(CC)c(CNc2cc(C)cc(C)n2)c(CC)c1CNc1cc(C)cc(C)n1
2. CCc1c(CN)c(CC)c(CNc2cc(C)cc(C)n2)c(CC)c1CNc1cc(C)cc(C)n1.Cl
3. Cc1ccc(O)c(NC(=O)c2cc(C(=O)Nc3cc(C)ccc3O)cc(C(=O)Nc3cc(C)ccc3O)c2)c1

>4 µg/mL
>0.8 µg/mL
>0.8 µg/mL
